This collection of values is drawn from patent US8076352B2.

System: hypoxia-inducible endogenous VEGF expression in HeLa cells
PROTOCOL_TEXT: Hypoxia-inducible endogenous VEGF expression, VEGF ELISA of conditioned media (dose-response EC50)
Format: cell-based
STATED_CONDITIONS: Homo sapiens, HeLa cells, hypoxic conditions (1% O2)
pEC50: −log10 of the molar value.
Recorded pEC50, one value per entry.

Example molecules with recorded pEC50:
MOLECULE | pEC50
CCOC(=O)N1CCc2c([nH]c3ccc(Cl)cc23)C1C(C)Cc1ccc(C(C)(C)C)cc1 (stereo not shown) [Compound 528] | 6.00 to 6.70
COCCOCCOc1ccc(C2c3[nH]c4ccc(Cl)cc4c3CCN2C(=O)Oc2ccc(Cl)cc2)cc1 (stereo not shown) [Compound 675] | 7.40 to 8.10
CCOC(=O)N1CCc2c([nH]c3ccc(Cl)cc23)C1c1cccc(C(=O)N(C)C)c1 (stereo not shown) [Compound 520] | 6.00 to 6.70

# ---- query molecule ----
For the molecule shown here, O=C(Oc1ccc(F)cc1)N1CCc2c([nH]c3ccc(Cl)cc23)C1c1ccc(OCCCCN2CCCCC2)cc1 (stereo not shown) [Compound 739] , give the reported pEC50.
> 8.10
